The origin of these recorded values is BigSolDB 2.1.

Details: in n-propanol, 318.15 K
measurement.type: solubility (mole fraction)

Prompt line: Value lookup for solubility (mole fraction); key = `O=C(O)CCc1nc(-c2ccccc2)c(-c2ccccc2)o1`
Response line: 0.0161

###

Details: in n-pentanol, 303.15 K
measurement.type: solubility (mole fraction)
In your answer, state the number alone without any accompanying words.

Prompt line: Value lookup for solubility (mole fraction); key = `O=C(O)CCc1nc(-c2ccccc2)c(-c2ccccc2)o1`
Response line: 0.00864

###

Details: in methyl acetate, 313.15 K
measurement.type: solubility (mole fraction)
In your answer, state the number alone without any accompanying words.

Prompt line: Value lookup for solubility (mole fraction); key = `O=C(O)CCc1nc(-c2ccccc2)c(-c2ccccc2)o1`
Response line: 0.0167

###

Details: in n-propyl acetate, 308.15 K
measurement.type: solubility (mole fraction)
In your answer, state the number alone without any accompanying words.

Prompt line: Value lookup for solubility (mole fraction); key = `O=C(O)CCc1nc(-c2ccccc2)c(-c2ccccc2)o1`
Response line: 0.00935

###

Details: in n-butyl acetate, 308.15 K
measurement.type: solubility (mole fraction)
In your answer, state the number alone without any accompanying words.

Prompt line: Value lookup for solubility (mole fraction); key = `O=C(O)CCc1nc(-c2ccccc2)c(-c2ccccc2)o1`
Response line: 0.00842

###

Conditions: in methyl acetate, 298.15 K
measurement.type: solubility (mole fraction)

Prompt line: Value lookup for solubility (mole fraction); key = `O=C(O)CCc1nc(-c2ccccc2)c(-c2ccccc2)o1`
Response line: 0.0102

###

Conditions: in n-propanol, 293.15 K
measurement.type: solubility (mole fraction)
In your answer, state the number alone without any accompanying words.

Prompt line: Value lookup for solubility (mole fraction); key = `O=C(O)CCc1nc(-c2ccccc2)c(-c2ccccc2)o1`
Response line: 0.00519

###

Conditions: in n-propanol, 288.15 K
measurement.type: solubility (mole fraction)
In your answer, state the number alone without any accompanying words.

Prompt line: Value lookup for solubility (mole fraction); key = `O=C(O)CCc1nc(-c2ccccc2)c(-c2ccccc2)o1`
Response line: 0.00414

###

Conditions: in DMSO, 323.15 K
measurement.type: solubility (mole fraction)
In your answer, state the number alone without any accompanying words.

Prompt line: Value lookup for solubility (mole fraction); key = `O=C(O)CCc1nc(-c2ccccc2)c(-c2ccccc2)o1`
Response line: 0.303

###

Conditions: in ethanol, 278.15 K
measurement.type: solubility (mole fraction)
In your answer, state the number alone without any accompanying words.

Prompt line: Value lookup for solubility (mole fraction); key = `O=C(O)CCc1nc(-c2ccccc2)c(-c2ccccc2)o1`
Response line: 0.00257

###

Settings: in methanol, 278.15 K
measurement.type: solubility (mole fraction)
In your answer, state the number alone without any accompanying words.

Prompt line: Value lookup for solubility (mole fraction); key = `O=C(O)CCc1nc(-c2ccccc2)c(-c2ccccc2)o1`
Response line: 0.0023

###

Conditions: in n-pentyl acetate, 288.15 K
measurement.type: solubility (mole fraction)

Prompt line: Value lookup for solubility (mole fraction); key = `O=C(O)CCc1nc(-c2ccccc2)c(-c2ccccc2)o1`
Response line: 0.00387

###

Settings: in n-butanol, 283.15 K
measurement.type: solubility (mole fraction)

Prompt line: Value lookup for solubility (mole fraction); key = `O=C(O)CCc1nc(-c2ccccc2)c(-c2ccccc2)o1`
Response line: 0.00328

###

Conditions: in DMF, 293.15 K
measurement.type: solubility (mole fraction)

Prompt line: Value lookup for solubility (mole fraction); key = `O=C(O)CCc1nc(-c2ccccc2)c(-c2ccccc2)o1`
Response line: 0.164

###

Conditions: in n-propanol, 323.15 K
measurement.type: solubility (mole fraction)
In your answer, state the number alone without any accompanying words.

Prompt line: Value lookup for solubility (mole fraction); key = `O=C(O)CCc1nc(-c2ccccc2)c(-c2ccccc2)o1`
Response line: 0.0201

###

Conditions: in n-butanol, 313.15 K
measurement.type: solubility (mole fraction)

Prompt line: Value lookup for solubility (mole fraction); key = `O=C(O)CCc1nc(-c2ccccc2)c(-c2ccccc2)o1`
Response line: 0.0131

###

Conditions: in n-pentyl acetate, 298.15 K
measurement.type: solubility (mole fraction)
In your answer, state the number alone without any accompanying words.

Prompt line: Value lookup for solubility (mole fraction); key = `O=C(O)CCc1nc(-c2ccccc2)c(-c2ccccc2)o1`
Response line: 0.0055

###

Conditions: in n-pentyl acetate, 318.15 K
measurement.type: solubility (mole fraction)
In your answer, state the number alone without any accompanying words.

Prompt line: Value lookup for solubility (mole fraction); key = `O=C(O)CCc1nc(-c2ccccc2)c(-c2ccccc2)o1`
Response line: 0.0111

###

Details: in n-propyl acetate, 303.15 K
measurement.type: solubility (mole fraction)

Prompt line: Value lookup for solubility (mole fraction); key = `O=C(O)CCc1nc(-c2ccccc2)c(-c2ccccc2)o1`
Response line: 0.00781

###

Conditions: in DMAc, 288.15 K
measurement.type: solubility (mole fraction)
In your answer, state the number alone without any accompanying words.

Prompt line: Value lookup for solubility (mole fraction); key = `O=C(O)CCc1nc(-c2ccccc2)c(-c2ccccc2)o1`
Response line: 0.223

###

Conditions: in ethyl acetate, 298.15 K
measurement.type: solubility (mole fraction)
In your answer, state the number alone without any accompanying words.

Prompt line: Value lookup for solubility (mole fraction); key = `O=C(O)CCc1nc(-c2ccccc2)c(-c2ccccc2)o1`
Response line: 0.00778

###

Details: in DMF, 318.15 K
measurement.type: solubility (mole fraction)
In your answer, state the number alone without any accompanying words.

Prompt line: Value lookup for solubility (mole fraction); key = `O=C(O)CCc1nc(-c2ccccc2)c(-c2ccccc2)o1`
Response line: 0.219

###

Settings: in DMF, 278.15 K
measurement.type: solubility (mole fraction)
In your answer, state the number alone without any accompanying words.

Prompt line: Value lookup for solubility (mole fraction); key = `O=C(O)CCc1nc(-c2ccccc2)c(-c2ccccc2)o1`
Response line: 0.136

###

Details: in DMF, 288.15 K
measurement.type: solubility (mole fraction)
In your answer, state the number alone without any accompanying words.

Prompt line: Value lookup for solubility (mole fraction); key = `O=C(O)CCc1nc(-c2ccccc2)c(-c2ccccc2)o1`
Response line: 0.154

###

Conditions: in n-butyl acetate, 293.15 K
measurement.type: solubility (mole fraction)
In your answer, state the number alone without any accompanying words.

Prompt line: Value lookup for solubility (mole fraction); key = `O=C(O)CCc1nc(-c2ccccc2)c(-c2ccccc2)o1`
Response line: 0.00489

###

Conditions: in n-butanol, 298.15 K
measurement.type: solubility (mole fraction)

Prompt line: Value lookup for solubility (mole fraction); key = `O=C(O)CCc1nc(-c2ccccc2)c(-c2ccccc2)o1`
Response line: 0.00663

###

Conditions: in methanol, 283.15 K
measurement.type: solubility (mole fraction)

Prompt line: Value lookup for solubility (mole fraction); key = `O=C(O)CCc1nc(-c2ccccc2)c(-c2ccccc2)o1`
Response line: 0.00282

###

Settings: in n-propanol, 313.15 K
measurement.type: solubility (mole fraction)
In your answer, state the number alone without any accompanying words.

Prompt line: Value lookup for solubility (mole fraction); key = `O=C(O)CCc1nc(-c2ccccc2)c(-c2ccccc2)o1`
Response line: 0.0122

###

Settings: in n-propanol, 308.15 K
measurement.type: solubility (mole fraction)
In your answer, state the number alone without any accompanying words.

Prompt line: Value lookup for solubility (mole fraction); key = `O=C(O)CCc1nc(-c2ccccc2)c(-c2ccccc2)o1`
Response line: 0.01

###

Conditions: in n-propyl acetate, 298.15 K
measurement.type: solubility (mole fraction)

Prompt line: Value lookup for solubility (mole fraction); key = `O=C(O)CCc1nc(-c2ccccc2)c(-c2ccccc2)o1`
Response line: 0.00656

###

Conditions: in methyl acetate, 308.15 K
measurement.type: solubility (mole fraction)

Prompt line: Value lookup for solubility (mole fraction); key = `O=C(O)CCc1nc(-c2ccccc2)c(-c2ccccc2)o1`
Response line: 0.0146

###

Conditions: in methanol, 303.15 K
measurement.type: solubility (mole fraction)
In your answer, state the number alone without any accompanying words.

Prompt line: Value lookup for solubility (mole fraction); key = `O=C(O)CCc1nc(-c2ccccc2)c(-c2ccccc2)o1`
Response line: 0.00657

###

Conditions: in n-butyl acetate, 303.15 K
measurement.type: solubility (mole fraction)
In your answer, state the number alone without any accompanying words.

Prompt line: Value lookup for solubility (mole fraction); key = `O=C(O)CCc1nc(-c2ccccc2)c(-c2ccccc2)o1`
Response line: 0.00707

###

Conditions: in n-propanol, 283.15 K
measurement.type: solubility (mole fraction)
In your answer, state the number alone without any accompanying words.

Prompt line: Value lookup for solubility (mole fraction); key = `O=C(O)CCc1nc(-c2ccccc2)c(-c2ccccc2)o1`
Response line: 0.00326

###

Conditions: in DMSO, 313.15 K
measurement.type: solubility (mole fraction)
In your answer, state the number alone without any accompanying words.

Prompt line: Value lookup for solubility (mole fraction); key = `O=C(O)CCc1nc(-c2ccccc2)c(-c2ccccc2)o1`
Response line: 0.272

###

Details: in n-pentanol, 323.15 K
measurement.type: solubility (mole fraction)

Prompt line: Value lookup for solubility (mole fraction); key = `O=C(O)CCc1nc(-c2ccccc2)c(-c2ccccc2)o1`
Response line: 0.021
